measurement.description: in vitro
Assay type: cell-based
test.context: African green monkey
Numbered stars: 1 amine (or outer) side, 2 acyl side, 3 side chain; on linkers, the order of the positions; unused ones are H or OH. Bridge positions count the residues as written; N and C are the ends. Square brackets hold non-standard residues; d marks the D form. Peptide text beside a SMILES is read from it. Abu(3S-NH2) = C[C@H](N)[C@H](N)C(=O)O; Hpla = O=C(O)[C@@H](O)Cc1ccc(O)cc1; X1 = NCC[C@H](O[*:1])C(=O)[*:2]
Entries and their GI50 at 48 h values follow.

Here are 2 compounds together with their reported answers.
C[C@@H]1NC(=O)[C@H](Cc2c[nH]cn2)NC(=O)[C@H](Cc2ccc(O)cc2)NC(=O)[C@@H]2CCCN2C(=O)[C@H]2CCCN2C(=O)[C@H](CCCCN)NC(=O)[C@H](Cc2ccc(O)cc2)OC(=O)[C@H](Cc2ccc(O)cc2)NC(=O)[C@@H]2CSSC[C@H](NC1=O)C(=O)N[C@@H](CO)C(=O)N[C@@H](C)C(=O)N1CCC[C@@H]1C(=O)N[C@@H]([C@H](C)N)C(=O)N[C@@H](CCCNC(=N)N)C(=O)N[C@@H](Cc1ccc(O)cc1)C(=O)N2 [Example 4] (cyclo(YHACSA[dP][Abu(3S-NH2)]RYCY[Hpla]K[dP]P); disulfide 4-11) :: > 50 µM
C[C@@H]1NC(=O)[C@H](Cc2c[nH]cn2)NC(=O)[C@H](Cc2ccc(O)cc2)NC(=O)[C@@H]2CCCN2C(=O)[C@H]2CCCN2C(=O)[C@H](CCCCN)NC(=O)[C@H](CCC(N)=O)NC(=O)[C@H](Cc2ccc(O)cc2)OC(=O)[C@@H]2CSSC[C@H](NC1=O)C(=O)N[C@@H](CO)C(=O)N[C@@H](C)C(=O)N1CCC[C@@H]1C(=O)N[C@@H]([C@H](C)N)C(=O)N[C@@H](CCCNC(=N)N)C(=O)N[C@@H](Cc1ccc(O)cc1)C(=O)N2 [Example 3] (cyclo(YHACSA[dP][Abu(3S-NH2)]RYC[Hpla]QK[dP]P); disulfide 4-11) :: > 50 µM

# context switch: different compound, same GI50 at 48 h
Reported GI50 at 48 h for C[C@@H]1NC(=O)[C@H](Cc2c[nH]cn2)NC(=O)[C@H](Cc2ccc(O)cc2)NC(=O)[C@@H]2CCCN2C(=O)[C@H]2CCCN2C(=O)[C@H](CCN)OC(=O)[C@@H](CCC(N)=O)NC(=O)[C@H](Cc2ccc(O)cc2)NC(=O)[C@@H]2CSSC[C@H](NC1=O)C(=O)N[C@@H](CCCNC(=N)N)C(=O)N[C@@H](C)C(=O)N1CCC[C@@H]1C(=O)N[C@@H]([C@H](C)N)C(=O)N[C@@H](CCCNC(=N)N)C(=O)N[C@@H](Cc1ccc(O)cc1)C(=O)N2 [Example 10] (cyclo(YHACRA[dP][Abu(3S-NH2)]RYCY[dQ][X1][dP]P); disulfide 4-11) : what is it?
> 50 µM

Value source: patent US8883720B2
